target: human HER4 (human, UniProt Q15303 26-1308); experiment: FACS CHO-HER4, 222 nM
Sequence (Q15303 26-1308 limits assumed): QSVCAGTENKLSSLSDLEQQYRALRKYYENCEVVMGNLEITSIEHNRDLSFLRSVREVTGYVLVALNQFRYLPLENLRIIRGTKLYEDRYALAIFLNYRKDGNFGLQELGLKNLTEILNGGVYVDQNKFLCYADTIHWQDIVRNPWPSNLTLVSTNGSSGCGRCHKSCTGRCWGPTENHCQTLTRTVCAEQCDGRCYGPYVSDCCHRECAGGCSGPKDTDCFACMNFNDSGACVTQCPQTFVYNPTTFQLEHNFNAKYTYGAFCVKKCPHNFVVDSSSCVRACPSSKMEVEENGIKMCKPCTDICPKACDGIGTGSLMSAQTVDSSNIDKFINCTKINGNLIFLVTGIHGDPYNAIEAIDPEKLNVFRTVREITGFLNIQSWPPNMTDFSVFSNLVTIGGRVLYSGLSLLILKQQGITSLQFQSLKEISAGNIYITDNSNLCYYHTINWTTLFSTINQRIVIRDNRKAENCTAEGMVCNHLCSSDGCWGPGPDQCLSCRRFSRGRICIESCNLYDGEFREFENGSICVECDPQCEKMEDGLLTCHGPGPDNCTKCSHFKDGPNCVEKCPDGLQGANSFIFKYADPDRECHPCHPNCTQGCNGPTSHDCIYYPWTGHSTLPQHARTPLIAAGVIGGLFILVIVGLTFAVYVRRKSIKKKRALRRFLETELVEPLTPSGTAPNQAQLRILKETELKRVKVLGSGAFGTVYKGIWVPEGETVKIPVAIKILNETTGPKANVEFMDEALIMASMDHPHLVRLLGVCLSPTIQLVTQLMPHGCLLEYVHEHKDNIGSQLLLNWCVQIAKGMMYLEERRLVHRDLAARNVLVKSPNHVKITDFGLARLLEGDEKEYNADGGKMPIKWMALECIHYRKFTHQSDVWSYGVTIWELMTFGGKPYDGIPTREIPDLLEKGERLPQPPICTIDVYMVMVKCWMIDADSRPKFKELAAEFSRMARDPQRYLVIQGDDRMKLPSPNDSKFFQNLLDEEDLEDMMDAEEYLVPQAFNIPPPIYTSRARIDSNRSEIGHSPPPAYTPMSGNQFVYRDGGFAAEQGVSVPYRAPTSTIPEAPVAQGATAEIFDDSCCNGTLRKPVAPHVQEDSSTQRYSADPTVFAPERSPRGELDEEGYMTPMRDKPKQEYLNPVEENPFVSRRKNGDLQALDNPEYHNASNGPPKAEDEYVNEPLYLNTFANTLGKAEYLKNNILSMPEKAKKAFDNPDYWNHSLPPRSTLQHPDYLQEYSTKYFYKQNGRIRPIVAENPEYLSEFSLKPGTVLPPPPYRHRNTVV

{"binder": "18G11 (VHH, c-myc, His6-tagged form as expressed; also called HER3MS18G11; HER3MS018G11) VHH: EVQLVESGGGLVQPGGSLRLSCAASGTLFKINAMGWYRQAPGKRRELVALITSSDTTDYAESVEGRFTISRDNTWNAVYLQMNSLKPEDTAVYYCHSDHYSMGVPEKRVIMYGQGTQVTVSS", "MCF": 57}
{"binder": "04C07 (VHH, also called HER3MS04C07; HER3MS004C07) VHH: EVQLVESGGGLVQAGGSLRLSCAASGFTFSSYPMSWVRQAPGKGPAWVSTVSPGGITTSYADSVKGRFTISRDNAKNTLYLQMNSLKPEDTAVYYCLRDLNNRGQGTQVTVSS", "MCF": 96}
{"binder": "17B05 (VHH, also called HER3MS17B05; HER3MS017B05) VHH: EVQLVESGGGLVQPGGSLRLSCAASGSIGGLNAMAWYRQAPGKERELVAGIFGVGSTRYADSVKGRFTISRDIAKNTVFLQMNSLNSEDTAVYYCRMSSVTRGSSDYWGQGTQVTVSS", "MCF": 142}
{"binder": "18E08 (VHH) VHH: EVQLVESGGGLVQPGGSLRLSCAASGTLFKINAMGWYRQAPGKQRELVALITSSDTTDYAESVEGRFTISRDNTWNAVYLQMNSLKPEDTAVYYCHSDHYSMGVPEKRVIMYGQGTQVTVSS", "MCF": 91}
{"binder": "18B05 (VHH) VHH: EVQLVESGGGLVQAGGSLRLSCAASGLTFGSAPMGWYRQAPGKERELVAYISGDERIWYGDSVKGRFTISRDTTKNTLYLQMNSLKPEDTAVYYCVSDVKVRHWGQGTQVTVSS", "MCF": 60}
{"binder": "18F05 (VHH, also called 18F5) VHH: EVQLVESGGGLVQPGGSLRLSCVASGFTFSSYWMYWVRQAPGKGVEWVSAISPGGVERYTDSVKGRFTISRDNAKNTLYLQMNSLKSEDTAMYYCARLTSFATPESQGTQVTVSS", "MCF": 149}
{"binder": "17C08 (VHH, also called 17C8) VHH: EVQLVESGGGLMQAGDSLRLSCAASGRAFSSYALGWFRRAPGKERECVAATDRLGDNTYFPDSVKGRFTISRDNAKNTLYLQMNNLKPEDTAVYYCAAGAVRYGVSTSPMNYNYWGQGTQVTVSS", "MCF": 210}
{"binder": "23F05 (VHH) VHH: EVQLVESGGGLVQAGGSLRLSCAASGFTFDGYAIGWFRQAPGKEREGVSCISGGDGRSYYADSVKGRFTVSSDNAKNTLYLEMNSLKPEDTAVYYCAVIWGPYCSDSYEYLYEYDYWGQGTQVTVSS", "MCF": 343}

Reference for the values: patent US20130136748A1
